Target: Neurogenic locus notch homolog protein 2 (Homo sapiens)
Experiment: Notch2 binders on small-molecule microarrays, primary screen, biochemical, small-molecule microarray, 635 nm fluorescence, stem cell growth factors (AID 1073)
Settings: Notch2 binding, higher = more signal
QUANTITY: composite z-score

Worked examples follow.
-- ask Lab note: need composite z-score for COC(=O)c1c2oc(c1C(=O)OC)C(=O)N1CCC[C@H]1Cn1nncc1CN(Cc1ccccc1)C(=O)N[C@H](CO)CC2 on Neurogenic locus notch homolog protein 2 (Homo sapiens), anyone have it?
-- reply 0.201

-- ask Lab note: need composite z-score for CCOC(=O)C1=C[C@@H](c2ccccc2)N(S(=O)(=O)c2ccc(C)cc2)[C@H]1c1ccccc1 on Neurogenic locus notch homolog protein 2 (Homo sapiens), anyone have it?
-- reply 0.917

-- ask Lab note: need composite z-score for C=C(COC)C(=O)CC[C@H](OC(=O)c1cccnc1)c1ccc(CO)o1 on Neurogenic locus notch homolog protein 2 (Homo sapiens), anyone have it?
-- reply 0.574

# next molecule below
-- ask Lab note: need composite z-score for COc1cc(NN2C(C(O)c3cc(OC)c(OC)c(OC)c3)C=CC3C(=O)N(c4ccccc4)C(=O)C32)cc(OC)c1OC (centres undefined) on Neurogenic locus notch homolog protein 2 (Homo sapiens), anyone have it?
-- reply 1.57
